target-under-test: BMPR2 (Homo sapiens)
Sequence (Q13873 27-1038): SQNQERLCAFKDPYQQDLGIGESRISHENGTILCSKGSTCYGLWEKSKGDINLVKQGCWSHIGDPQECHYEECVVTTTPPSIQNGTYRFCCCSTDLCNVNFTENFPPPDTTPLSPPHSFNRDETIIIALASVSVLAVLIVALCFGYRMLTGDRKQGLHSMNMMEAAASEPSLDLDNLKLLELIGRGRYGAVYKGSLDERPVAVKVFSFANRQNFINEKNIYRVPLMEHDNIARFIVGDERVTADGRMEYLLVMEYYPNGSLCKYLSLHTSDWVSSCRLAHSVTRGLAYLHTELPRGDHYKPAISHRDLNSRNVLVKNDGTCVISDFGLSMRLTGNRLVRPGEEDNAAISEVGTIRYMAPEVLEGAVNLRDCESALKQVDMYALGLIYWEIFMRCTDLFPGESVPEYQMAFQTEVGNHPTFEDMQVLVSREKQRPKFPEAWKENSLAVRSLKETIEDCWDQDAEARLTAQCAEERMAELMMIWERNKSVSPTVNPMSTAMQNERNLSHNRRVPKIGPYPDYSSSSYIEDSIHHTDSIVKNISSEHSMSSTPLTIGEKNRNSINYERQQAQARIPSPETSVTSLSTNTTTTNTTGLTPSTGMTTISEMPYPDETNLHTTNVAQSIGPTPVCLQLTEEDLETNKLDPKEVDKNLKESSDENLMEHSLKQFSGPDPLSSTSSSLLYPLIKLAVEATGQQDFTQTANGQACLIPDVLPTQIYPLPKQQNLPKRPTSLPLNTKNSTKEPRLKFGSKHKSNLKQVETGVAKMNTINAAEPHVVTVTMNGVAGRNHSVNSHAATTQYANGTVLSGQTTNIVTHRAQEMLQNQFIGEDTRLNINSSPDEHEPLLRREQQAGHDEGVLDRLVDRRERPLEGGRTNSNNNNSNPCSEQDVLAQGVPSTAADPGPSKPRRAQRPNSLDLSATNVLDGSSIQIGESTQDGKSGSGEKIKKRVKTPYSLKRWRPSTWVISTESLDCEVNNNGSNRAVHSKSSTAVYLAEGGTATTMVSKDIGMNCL
pIC50: −log10 of the molar value.
measured-endpoint: pIC50

Reported pIC50, molecule c1cc(-c2cnc3cc(-c4ccc(C5CNCCN5)cc4)ccn23)c2cccnc2c1 (stereo not drawn) [Compound 33] : ____
< 4.00

Dear colleague, I am looking for the recorded pIC50 of the following molecule: Cc1cc(-c2cnc3cc(-c4ccc(C5COC6(CCNCC6)CN5)cc4)ccn23)c2cc(F)cc(F)c2n1 (stereo not drawn) [Compound 16]
< 4.00

Entry O=C1CNC(=O)C(c2ccc(-c3ccn4c(-c5cccc6ncccc56)cnc4c3)cc2)N1 (stereo not drawn) [Compound 36] : reported pIC50 = ?
< 4.00

---

method-description: Protein binding, mouse
Type: in vitro ADME
measured-endpoint: Protein Binding (% Free) Mouse

Some solved cases for reference:
molecule | Protein Binding (% Free) Mouse
Cc1cc(-c2cnc3cc(-c4ccc(C5CNCCN5)cc4)ccn23)c2cc(F)ccc2n1 (centres unmarked) [Compound 18] | 5.48
Cc1cc(-c2cnc3cc(-c4ccc(C5COC6(CCNCC6)CN5)cc4)ccn23)c2cc(F)cc(F)c2n1 (centres unmarked) [Compound 16] | 4.7
c1cnc2nccc(-c3cnc4cc(-c5ccc(C6CNCCN6)cc5)ccn34)c2c1 (centres unmarked) [Compound 32] | 33.9
c1cnc2scc(-c3cnc4cc(-c5ccc(C6CNCCN6)cc5)ccn34)c2c1 (centres unmarked) [Compound 31] | 6.8
Cc1cc(-c2cnc3cc(-c4ccc(C5COC(C)CN5)cc4)ccn23)c2cc(F)cc(F)c2n1 (centres unmarked) [Compound 19] | 3.15

A = Cc1cc(-c2cnc3cc(-c4ccc(C5COCCN5)cc4)ccn23)c2cc(F)ccc2n1 (centres unmarked) [Compound 11]
B = c1cnc2c(-c3cnc4cc(-c5ccc(C6CNCCN6)cc5)ccn34)ccnc2c1 (centres unmarked) [Compound 34]
// compare: A vs B , metric Protein Binding (% Free) Mouse, want the smaller The response must carry the label of the picked entry.
A
(A: 3.23 % Free, B: 21.2 % Free)

---

// reported pIC50 for each item listed
target-under-test: ALK2/ACVR1 (Homo sapiens, UniProt Q04771)
Sequence (Q04771 21-509): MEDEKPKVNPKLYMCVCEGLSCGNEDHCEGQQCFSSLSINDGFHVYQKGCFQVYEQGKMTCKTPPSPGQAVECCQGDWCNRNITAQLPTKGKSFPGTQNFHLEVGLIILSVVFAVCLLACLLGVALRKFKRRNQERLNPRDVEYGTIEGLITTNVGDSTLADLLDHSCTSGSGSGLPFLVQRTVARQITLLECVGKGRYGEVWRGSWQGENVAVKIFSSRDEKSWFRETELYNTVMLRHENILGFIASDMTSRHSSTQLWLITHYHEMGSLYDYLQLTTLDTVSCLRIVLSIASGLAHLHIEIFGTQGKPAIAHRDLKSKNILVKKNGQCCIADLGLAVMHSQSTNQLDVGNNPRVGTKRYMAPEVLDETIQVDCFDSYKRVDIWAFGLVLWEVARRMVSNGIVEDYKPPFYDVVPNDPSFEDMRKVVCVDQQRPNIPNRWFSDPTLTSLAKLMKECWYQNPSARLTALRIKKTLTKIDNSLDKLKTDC
method-description: Kinase assay (33P-ATP filter-binding), ALK2
Assay type: biochemical
stated-conditions: 20 mM; read-out: Kinase Selectivity ALK2/ACVR1 (20 mM)
pIC50: −log10 of the molar value.

The examples below pair each entry with its known result.
molecule | target-under-test | pIC50
c1cc(-c2cnc3cc(-c4ccc(C5CNCCN5)cc4)ccn23)c2cccnc2c1 (stereo not drawn) | ALK2/ACVR1 (Homo sapiens, UniProt Q04771) | > 8.29
Cc1cc(-c2cnc3cc(-c4ccc(C5COCCCN5)cc4)ccn23)c2cc(F)ccc2n1 (stereo not drawn) | ALK2/ACVR1 (Homo sapiens, UniProt Q04771) | > 8.29

Then this molecule:
Look up pIC50 with ALK2/ACVR1 (Homo sapiens, UniProt Q04771) for this molecule: Cc1cc(-c2cnc3cc(-c4ccc(C5COC6(CCNCC6)CN5)cc4)ccn23)c2cc(F)cc(F)c2n1 (stereo not drawn)
> 8.29

---

method-description: Intrinsic clearance, human
Assay type: in vitro ADME
stated-conditions: human, CL-Hep, value in parentheses, read-out: Intrinsic Clearance Human (CL-Hep)
Measured CLint scaled, listed per entry for reference.

// below: answered compounds
compound | CLint scaled
Cc1cc(-c2cnc3cc(-c4ccc(C5CNCCN5)cc4)ccn23)c2ccccc2n1 (centres unmarked) [Compound 12] | < 10.7 mL/min/kg
c1cnc2nccc(-c3cnc4cc(-c5ccc(C6CNCCN6)cc5)ccn34)c2c1 (centres unmarked) [Compound 32] | < 11 mL/min/kg
c1cnc2scc(-c3cnc4cc(-c5ccc(C6CNCCN6)cc5)ccn34)c2c1 (centres unmarked) [Compound 31] | < 11 mL/min/kg
Cc1cc(-c2cnc3cc(-c4ccc(C5COC6(CCNC6)CN5)cc4)ccn23)c2cc(F)cc(F)c2n1 (centres unmarked) [Compound 27] | < 10.7 mL/min/kg
NS(=O)(=O)c1ccc(-c2cnc3cc(-c4ccc(C5CNCCN5)cc4)ccn23)c2ccccc12 (centres unmarked) [Compound 37] | < 11 mL/min/kg
Cc1cc(-c2cnc3cc(-c4ccc(N5CCNC(C)(C)C5)cc4)ccn23)c2cc(F)cc(F)c2n1 [Compound 26] | < 10.7 mL/min/kg
Cc1cc(-c2cnc3cc(-c4ccc(C5COC6(CCNCC6)CN5)cc4)ccn23)c2cc(F)cc(F)c2n1 (centres unmarked) [Compound 16] | < 10.7 mL/min/kg

Quick one: CLint scaled of c1cc(-c2cnc3cc(-c4ccc(C5CNCCN5)cc4)ccn23)c2cccnc2c1 (centres unmarked) [Compound 33] ?
< 11 mL/min/kg

---

target-under-test: ALK3/BMPR1A (Homo sapiens)
Sequence (P36894 24-532): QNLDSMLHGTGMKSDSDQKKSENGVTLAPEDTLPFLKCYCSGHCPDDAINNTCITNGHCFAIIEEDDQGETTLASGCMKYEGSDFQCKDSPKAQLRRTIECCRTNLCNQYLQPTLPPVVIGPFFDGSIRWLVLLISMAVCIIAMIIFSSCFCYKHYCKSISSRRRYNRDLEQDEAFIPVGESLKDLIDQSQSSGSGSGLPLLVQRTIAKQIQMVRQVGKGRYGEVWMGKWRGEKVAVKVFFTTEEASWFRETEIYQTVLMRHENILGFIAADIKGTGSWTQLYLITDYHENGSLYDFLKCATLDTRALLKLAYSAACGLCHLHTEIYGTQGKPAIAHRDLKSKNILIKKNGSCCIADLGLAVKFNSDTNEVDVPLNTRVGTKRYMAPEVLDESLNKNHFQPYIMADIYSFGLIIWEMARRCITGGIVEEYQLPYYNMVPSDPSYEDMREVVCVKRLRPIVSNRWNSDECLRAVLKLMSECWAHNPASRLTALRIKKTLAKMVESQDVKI
method-description: Kinase assay (33P-ATP filter-binding), ALK3
Format: biochemical
stated-conditions: 1 mM; read-out: Kinase Selectivity ALK3/BMPR1A (1 mM)
IC50 by entry:

Example compounds with recorded IC50:
compound | IC50
Cc1cc(-c2cnc3cc(-c4ccc(C5COCC(C)N5)cc4)ccn23)c2cc(F)ccc2n1 (stereo not drawn) | < 5.1 nM
Cc1cc(-c2cnc3cc(-c4ccc(C5COCCN5)cc4)ccn23)c2cc(F)cc(F)c2n1 (stereo not drawn) | < 5.1 nM

For the compound c1cnc2nccc(-c3cnc4cc(-c5ccc(C6CNCCN6)cc5)ccn34)c2c1 (stereo not drawn) , what IC50 is on record?
< 5.1 nM

---

method-description: Intrinsic clearance, mouse
Type: in vitro ADME
stated-conditions: mouse, CL-Hep, value in parentheses, read-out: Intrinsic Clearance Mouse (CL-Hep)
measured-endpoint: CLint scaled

compound | endpoint-value
NS(=O)(=O)c1ccc(-c2cnc3cc(-c4ccc(C5CNCCN5)cc4)ccn23)c2ccccc12 (stereo not shown) | < 31.9 mL/min/kg
c1cnc2nccc(-c3cnc4cc(-c5ccc(C6CNCCN6)cc5)ccn34)c2c1 (stereo not shown) | < 31.9 mL/min/kg
c1cnc2c(-c3cnc4cc(-c5ccc(C6CNCCN6)cc5)ccn34)ccnc2c1 (stereo not shown) | < 31.9 mL/min/kg
Cc1cc(-c2cnc3cc(-c4ccc(C5CNCCN5)cc4)ccn23)c2ccccc2n1 (stereo not shown) | < 32.9 mL/min/kg
Cc1cc(-c2cnc3cc(-c4ccc(C5COCCCN5)cc4)ccn23)c2cc(F)cc(F)c2n1 (stereo not shown) | < 32.9 mL/min/kg
Cc1cc(-c2cnc3cc(N4CC5(CCNCC5)C4)ccn23)c2cc(F)cc(F)c2n1 | < 32.9 mL/min/kg

// below: CLint scaled requested for another compound
Reported CLint scaled, compound Cc1cc(-c2cnc3cc(-c4ccc(C5CNCCN5)cc4)ccn23)c2cc(F)ccc2n1 (stereo not shown) : ____
< 32.9 mL/min/kg

---

target-under-test: ALK2 (R206H) (Homo sapiens, UniProt Q04771, R206H)
Sequence (Q04771 21-509 R206H, species assumed): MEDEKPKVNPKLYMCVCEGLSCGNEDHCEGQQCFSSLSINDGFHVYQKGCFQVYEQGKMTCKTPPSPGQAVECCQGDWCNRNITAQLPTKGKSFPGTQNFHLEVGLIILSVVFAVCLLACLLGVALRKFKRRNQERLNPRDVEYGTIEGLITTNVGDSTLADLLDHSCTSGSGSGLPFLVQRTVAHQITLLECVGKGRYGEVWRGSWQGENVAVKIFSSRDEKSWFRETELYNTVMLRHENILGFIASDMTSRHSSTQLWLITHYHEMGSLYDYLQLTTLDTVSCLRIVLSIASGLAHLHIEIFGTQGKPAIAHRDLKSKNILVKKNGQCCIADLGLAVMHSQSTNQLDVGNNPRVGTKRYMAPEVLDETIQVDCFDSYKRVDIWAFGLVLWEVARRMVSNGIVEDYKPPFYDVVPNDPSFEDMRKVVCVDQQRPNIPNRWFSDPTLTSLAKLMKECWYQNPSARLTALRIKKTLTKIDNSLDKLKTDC
method-description: Kinase assay (33P-ATP filter-binding), ALK2 R206H
stated-conditions: R206H mutant, 20 mM; read-out: Kinase Selectivity ALK2 (R206H, 20 mM)
measured-endpoint: IC50 (nM)

a = c1cnc2nccc(-c3cnc4cc(-c5ccc(C6CNCCN6)cc5)ccn34)c2c1 (stereo not shown)
b = Cc1cc(-c2cnc3cc(-c4ccc(N5CCC6(CCNC6)CC5)cc4)ccn23)c2cc(F)cc(F)c2n1
Compare a and b and name the one whose reported IC50 is smaller. Pick one; state its label.
a
